Measured Ka, listed per entry for reference.
Target: T1, Duck egg lysozyme (DEL), D65N + N103D double mutant of the DEL-II isoform (Anas platyrhynchos, DEL-II double mutant, strain)
T1 construct: duck egg lysozyme, DEL-II isoform, D65N + N103D double mutant; differs from HEL3X at 25 amino acids; source: Pichia pastoris, secreted, purified from culture supernatant (ion exchange)
T1 chain: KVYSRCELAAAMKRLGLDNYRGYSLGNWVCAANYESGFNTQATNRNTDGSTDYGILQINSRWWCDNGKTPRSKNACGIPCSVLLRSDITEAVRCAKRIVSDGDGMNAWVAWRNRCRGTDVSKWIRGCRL
Assay: BLI; BLItz (ForteBio); biotinylated Hy10 Fab variant immobilised on streptavidin biosensors (rehydrated in PBS with 0.1% wt/vol BSA); soluble monomeric lysozyme antigen as analyte at a range of concentrations; global fit, 1:1 Fab-lysozyme interaction
Settings: both partners purified

| binder | u | Ka |
| --- | --- | --- |
| Hy10 Fab I29F/S52T/Y53F/Y58F (Fab, V domains shown, as the heavy chain of Dm5 with the stated changes; as the light chain of Dm5; source: Expi293, transient (pCEP4), purified (Talon resin, gel filtration)) VH: DVQLQESGPSLVKPSQTLSLTCSVTGDSFTSDYWSWIRKFPGNRLEYMGYVTFSGSTFYNPSLKSRISITRDTSKNQYYLDLNSVTTEDTATYYCANWDGDYWGQGTLVTVSA VL: DIVLTQSPATLSVTPGNSVSLSCRASQSIGNNLHWYQQKSHESPRLLIKYASQSISGIPSRFSGSGSGTDFTLSINSVETEDFGMYFCQQSNSWPYTFGGGTKLEIK | M⁻¹ | 7.51e+09 |
| Hy10 Fab S56R (Fab, V domains shown, as the heavy chain of Dm5 with the stated changes; as the light chain of Dm5; also called Hy10-S56R; source: Expi293, transient (pCEP4), purified (Talon resin, gel filtration)) VH: DVQLQESGPSLVKPSQTLSLTCSVTGDSITSDYWSWIRKFPGNRLEYMGYVSYSGRTYYNPSLKSRISITRDTSKNQYYLDLNSVTTEDTATYYCANWDGDYWGQGTLVTVSA VL: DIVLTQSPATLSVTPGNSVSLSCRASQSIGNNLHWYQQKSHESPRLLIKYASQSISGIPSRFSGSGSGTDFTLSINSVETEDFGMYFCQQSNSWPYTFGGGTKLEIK | M⁻¹ | 4.41e+06 |
| Hy10 Fab Y53F/Y58F (Fab, V domains shown, as the heavy chain of Dm5 with the stated changes; as the light chain of Dm5; source: Expi293, transient (pCEP4), purified (Talon resin, gel filtration)) VH: DVQLQESGPSLVKPSQTLSLTCSVTGDSITSDYWSWIRKFPGNRLEYMGYVSFSGSTFYNPSLKSRISITRDTSKNQYYLDLNSVTTEDTATYYCANWDGDYWGQGTLVTVSA VL: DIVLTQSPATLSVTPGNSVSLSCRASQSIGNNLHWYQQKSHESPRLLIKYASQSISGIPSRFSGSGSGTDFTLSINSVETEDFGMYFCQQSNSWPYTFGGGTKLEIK | M⁻¹ | 1.13e+08 |
| Hy10 Fab L4F/Y33H (Fab, V domains shown, as the heavy chain of Dm5 with the stated changes; as the light chain of Dm5; source: Expi293, transient (pCEP4), purified (Talon resin, gel filtration)) VH: DVQFQESGPSLVKPSQTLSLTCSVTGDSITSDHWSWIRKFPGNRLEYMGYVSYSGSTYYNPSLKSRISITRDTSKNQYYLDLNSVTTEDTATYYCANWDGDYWGQGTLVTVSA VL: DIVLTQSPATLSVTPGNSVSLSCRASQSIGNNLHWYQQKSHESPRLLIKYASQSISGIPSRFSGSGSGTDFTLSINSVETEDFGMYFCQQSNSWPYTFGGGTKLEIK | M⁻¹ | 5.8e+06 |
| Hy10 Fab Y58F (Fab, V domains shown, as the heavy chain of Dm5 with the stated changes; as the light chain of Dm5; source: Expi293, transient (pCEP4), purified (Talon resin, gel filtration)) VH: DVQLQESGPSLVKPSQTLSLTCSVTGDSITSDYWSWIRKFPGNRLEYMGYVSYSGSTFYNPSLKSRISITRDTSKNQYYLDLNSVTTEDTATYYCANWDGDYWGQGTLVTVSA VL: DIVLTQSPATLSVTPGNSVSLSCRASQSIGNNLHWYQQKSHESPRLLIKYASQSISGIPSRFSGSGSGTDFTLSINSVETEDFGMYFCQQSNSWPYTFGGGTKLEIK | M⁻¹ | 9.35e+07 |
| Hy10 Fab I29F/S52T (Fab, V domains shown, as the heavy chain of Dm5 with the stated changes; as the light chain of Dm5; source: Expi293, transient (pCEP4), purified (Talon resin, gel filtration)) VH: DVQLQESGPSLVKPSQTLSLTCSVTGDSFTSDYWSWIRKFPGNRLEYMGYVTYSGSTYYNPSLKSRISITRDTSKNQYYLDLNSVTTEDTATYYCANWDGDYWGQGTLVTVSA VL: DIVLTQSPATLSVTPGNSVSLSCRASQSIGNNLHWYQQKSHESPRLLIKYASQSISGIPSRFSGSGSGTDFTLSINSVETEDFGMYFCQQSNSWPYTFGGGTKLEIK | M⁻¹ | 1.73e+08 |
